# system.name: Serotonin transporter (SERT) (Homo sapiens, UniProt P31645)
# Sequence (P31645 whole entry): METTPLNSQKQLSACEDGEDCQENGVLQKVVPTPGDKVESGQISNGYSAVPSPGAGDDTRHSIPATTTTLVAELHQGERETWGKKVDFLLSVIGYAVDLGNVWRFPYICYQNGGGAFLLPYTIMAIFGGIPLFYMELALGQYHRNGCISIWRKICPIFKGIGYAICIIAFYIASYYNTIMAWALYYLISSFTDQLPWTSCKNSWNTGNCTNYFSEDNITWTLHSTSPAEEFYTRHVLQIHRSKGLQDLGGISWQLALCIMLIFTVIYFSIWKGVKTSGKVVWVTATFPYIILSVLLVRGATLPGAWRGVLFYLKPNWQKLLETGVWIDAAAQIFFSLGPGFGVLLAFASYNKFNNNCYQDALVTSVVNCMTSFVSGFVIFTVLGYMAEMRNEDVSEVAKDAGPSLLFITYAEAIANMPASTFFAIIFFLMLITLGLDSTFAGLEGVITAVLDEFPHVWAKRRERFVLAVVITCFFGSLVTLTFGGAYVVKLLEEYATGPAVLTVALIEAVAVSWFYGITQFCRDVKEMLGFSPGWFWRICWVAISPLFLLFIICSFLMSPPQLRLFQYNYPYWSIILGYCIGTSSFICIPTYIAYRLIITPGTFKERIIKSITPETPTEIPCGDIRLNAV
measured.property: IC50

Lab note: need IC50 with Serotonin transporter (SERT) (Homo sapiens, UniProt P31645) for entry CC(C(=O)c1cccc(Cl)c1)N(C)C(C)(C)C (racemic) [Compound 4, Rac-N-methyl bupropion] , please look it up.
> 100 µM

###

# system.name: Nicotinic acetylcholine
# protocol.notes: Pharmacological screen, nicotinic acetylcholine receptor binding
# recorded.conditions: Nicotinic acetylcholine; Cheng and Prusoff
measured.property: pKi
Units for pKi: none; it is -log10 of a concentration expressed in mol/L.

Name the reported pKi value associated with the molecule CC(C(=O)c1cccc(Cl)c1)N(C)C(C)(C)C (racemic)
4.31
